experiment: Pharmacokinetics and total colon distribution after oral administration
Assay type: in vivo
measurement parameters: male, C57BL/6, mouse, whole blood; mice, Ex. 36 measured after oral 5 mg/kg of Ex. 47 (Na salt), 4 h; read-out: Mean blood concentration
property: concentration at 4 h (ng/mL)
Provide only the numeric value, understood in ng/mL.

Field request: concentration at 4 h | item: COc1cc(Nc2cc(Oc3ccc(NC(=O)Nc4cc(C(C)(C)C)cc(NS(C)(=O)=O)c4OC)c4ccccc34)ccn2)cc(OC)c1C(=O)NCCOCCOCCO [Example 36]
0

---

Measured % Viability at 20 μg/mL of individual entries
System: Jurkat cells
experiment: (r) Cell cytotoxicity assay
Type: cell-based, human
measurement parameters: 20 μg/mL, 24 hours
Form entry: value (%) — number only.

Worked cases, % Viability at 20 μg/mL given:
COc1cc(Nc2cc(Oc3ccc(NC(=O)Nc4cc(C(C)(C)C)cc(NS(C)(=O)=O)c4OC)c4ccccc34)ccn2)ccc1S(=O)(=O)CC(CO)(CO)CO; 9.8
COc1cc(Nc2cc(Oc3ccc(NC(=O)Nc4cc(C(C)(C)C)cc(NS(C)(=O)=O)c4OC)c4ccccc34)ccn2)ccc1C(=O)NC[C@H](O)[C@H](O)[C@H](O)CO; 21.3
COc1cc(Nc2cc(Oc3ccc(NC(=O)Nc4cc(C(C)(C)C)cc(NS(C)(=O)=O)c4OC)c4ccccc34)ccn2)ccc1P(C)(=O)O; 92.2
COc1cc(Nc2cc(Oc3ccc(NC(=O)Nc4cc(C(C)(C)C)cc(NS(C)(=O)=O)c4OC)c4ccccc34)ccn2)ccc1C(=O)N(C)CCN1CCN(C)CC1; 0.6
COc1c(NC(=O)Nc2ccc(Oc3ccnc(Nc4ccc(C(=O)NCCCN5CCOCC5)c(O)c4)c3)c3ccccc23)cc(C(C)(C)C)cc1NS(C)(=O)=O; 2.0

// next item, % Viability at 20 μg/mL requested
Consider the compound COc1cc(Nc2cc(Oc3ccc(NC(=O)Nc4cc(C(C)(C)C)cc(NS(C)(=O)=O)c4OC)c4ccccc34)ccn2)ccc1C(=O)NCCOCCOCCC(=O)O and give its measured % Viability at 20 μg/mL.
38.9
